Target: IDH2^R172K (Homo sapiens, UniProt P48735, R172K)
Sequence (P48735 40-452 R172K): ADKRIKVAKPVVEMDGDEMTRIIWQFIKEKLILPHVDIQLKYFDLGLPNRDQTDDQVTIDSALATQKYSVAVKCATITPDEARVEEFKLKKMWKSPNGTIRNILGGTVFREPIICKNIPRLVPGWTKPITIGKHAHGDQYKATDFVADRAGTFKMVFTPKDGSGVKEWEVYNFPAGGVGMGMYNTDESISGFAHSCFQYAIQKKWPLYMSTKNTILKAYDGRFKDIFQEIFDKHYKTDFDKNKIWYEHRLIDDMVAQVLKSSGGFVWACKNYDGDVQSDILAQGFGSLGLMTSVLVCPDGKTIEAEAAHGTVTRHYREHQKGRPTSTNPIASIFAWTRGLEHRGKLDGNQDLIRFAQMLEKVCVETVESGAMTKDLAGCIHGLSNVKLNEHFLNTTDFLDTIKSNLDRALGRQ
Experiment: NADPH depletion assay, IDH2 R172K
pIC50: −log10 of the molar value.

{"input-smiles": "C[C@H](Nc1ncc2ccc(=O)n(CC(C)(C)C)c2n1)c1cc2cc(Cl)ccc2[nH]c1=O", "pIC50": 5.60}
{"input-smiles": "C[C@H](Nc1ncc2ccc(=O)n(CC(C)(C)C)c2n1)c1ccc(-c2ccccc2C#N)cc1", "pIC50": 5.21}
{"input-smiles": "C=CC(=O)N1CCN([C@@H](CC)c2ccc([C@H](C)Nc3cc4c(ccc(=O)n4C(C)C)cn3)cc2)CC1", "pIC50": 7.70}
{"input-smiles": "C=CC(=O)N1CC=C(c2ccc([C@H](C)Nc3ncc4ccc(=O)n([C@@H](C)C(C)C)c4n3)cc2)CC1", "pIC50": 6.86}
{"input-smiles": "COc1cccc(Cn2c(=O)ccc3cnc(N[C@@H](C)c4ccc(Cl)cc4)nc32)c1", "pIC50": 5.60}
{"input-smiles": "C=CC(=O)N1CCN([C@@H](CC)c2ccc([C@H](C)Nc3cc4c(ccc(=O)n4CC)cn3)cc2)CC1", "pIC50": 7.60}
{"input-smiles": "C=CC(=O)N1CCN([C@H](CC2CC2)c2ccc([C@H](C)Nc3ncc4ccc(=O)n(C(C)C)c4n3)cc2)CC1", "pIC50": 7.85}
{"input-smiles": "CC[C@H](C)n1c(=O)ccc2cnc(N[C@@H](C)c3ccc(CN4CCCC(F)(F)C4)cc3)nc21", "pIC50": 5.24}
{"input-smiles": "COC(=O)c1ccc([C@H](C)Nc2ncc3ccc(=O)n(CC(C)(C)C)c3n2)cc1", "pIC50": 5.21}
{"input-smiles": "CC(C)[C@H](C)n1c(=O)ccc2cnc(N[C@@H](C)c3ccc(-c4ccnc(F)c4)cc3)nc21", "pIC50": 5.12}
{"input-smiles": "C=CC(=O)N1CCC(NC(=O)c2ccc([C@H](C)Nc3ncc4ccc(=O)n(C(C)C)c4n3)cc2F)CC1", "pIC50": 6.19}
{"input-smiles": "C[C@H](Nc1ncc2ccc(=O)n(CC(C)(C)CO)c2n1)c1ccc(Br)cc1", "pIC50": 5.30}
{"input-smiles": "CCCn1c(=O)ccc2cnc(N[C@@H](C)c3ccc(CN4CCC(F)(F)CC4)cc3)nc21", "pIC50": 5.57}
{"input-smiles": "C[C@H](Nc1ncc2ccc(=O)n(Cc3c(F)cccc3F)c2n1)c1ccc(CN2CCC(F)(F)CC2)cc1", "pIC50": 5.44}
{"input-smiles": "C=CC(=O)N1CCN(C(=O)c2ccc([C@H](C)Nc3ncc4ccc(=O)n([C@@H](C)C(C)C)c4n3)cc2F)CC1", "pIC50": 6.04}
{"input-smiles": "C=CC(=O)N1CCN(Cc2ccc([C@H](C)Nc3ncc4ccc(=O)n([C@@H](C)C(C)C)c4n3)cc2)CC1", "pIC50": 6.52}
{"input-smiles": "C[C@H](Nc1ncc2ccc(=O)n(Cc3ccc(OC(F)(F)F)cc3)c2n1)c1ccc(Cl)cc1", "pIC50": 5.66}
{"input-smiles": "C[C@H](Nc1ncc2ccc(=O)n(CC(C)(C)C)c2n1)c1ccc(CN2CCC(F)(F)CC2)c(F)c1", "pIC50": 5.25}
{"input-smiles": "C[C@H](Nc1cc2c(ccc(=O)n2CC(C)(C)C)cn1)c1ccc(CN2CCCC(F)(F)C2)cc1", "pIC50": 5.29}
{"input-smiles": "C=CC(=O)N1CCN([C@H](CC)c2ccc([C@H](C)Nc3ncc4ccc(=O)n(C(C)C)c4n3)cc2)CC1", "pIC50": 7.60}
{"input-smiles": "CC(C)[C@H](C)n1c(=O)ccc2cnc(N[C@@H](C)c3ccc(C4=CCN(C(=O)OC(C)(C)C)CC4)cc3)nc21", "pIC50": 5.59}
